- Tested System: Cytochrome P450 2C19 (Homo sapiens) (UniProt P33261)
- Sequence (P33261 whole entry, looked up): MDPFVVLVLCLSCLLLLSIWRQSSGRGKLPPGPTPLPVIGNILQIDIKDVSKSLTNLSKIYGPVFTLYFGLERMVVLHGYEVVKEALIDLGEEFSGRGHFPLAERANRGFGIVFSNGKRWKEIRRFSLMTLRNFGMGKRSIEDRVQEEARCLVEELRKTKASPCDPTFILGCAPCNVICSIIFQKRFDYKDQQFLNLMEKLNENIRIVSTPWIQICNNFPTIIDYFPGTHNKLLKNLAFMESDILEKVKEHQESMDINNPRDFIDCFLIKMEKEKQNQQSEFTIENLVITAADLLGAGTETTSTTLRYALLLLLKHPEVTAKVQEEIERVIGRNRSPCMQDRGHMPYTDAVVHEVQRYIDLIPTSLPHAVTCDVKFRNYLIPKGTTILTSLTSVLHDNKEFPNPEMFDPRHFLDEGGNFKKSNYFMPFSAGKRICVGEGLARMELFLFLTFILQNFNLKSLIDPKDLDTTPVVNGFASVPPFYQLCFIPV
- Test Name: Cytochrome panel assay with activity outcomes
- Assay Setup: recombinant CYP, pro-luciferin dealkylation, luminescence, p450-cyp2c19; series mostly up to 57.1 µM
The whole screen tested about 16,000 compounds, of which about 5,800 (36%) were called active. Another 23% or so got no clear call; they are omitted. The list shows a part of the results.
Reported Property: AC50

Compound	Test Result
CC(C)N1CCN(c2ccc(OC[C@@H]3CO[C@@](Cn4cncn4)(c4ccc(Cl)cc4Cl)O3)cc2)CC1	inactive
Cc1ccc(SCC(=O)NNC(=O)C2CCCCC2)cc1	inactive
O=C(O)c1ccccc1C(=O)Nc1ccc(S(=O)(=O)Nc2nccs2)cc1	inactive
O=C(CCN1C(=O)S/C(=C\c2ccccc2)C1=O)Nc1ccc(S(=O)(=O)Nc2nccs2)cc1	5.01 µM (active)
COc1ccc(OC)c2c(=S)c3ccccc3[nH]c12	inactive
N[C@H](C(=O)O)c1ccc(C(=O)O)c(O)c1	inactive
CN(C)C(=O)N1CCCC(C(=O)NCCc2ccccc2)C1 (stereo unspecified)	inactive
CCOC(=O)[C@H](CCc1ccccc1)N[C@@H](C)C(=O)N1CCC[C@H]1C(=O)O	inactive
COc1ccccc1-c1nnc(SCc2nc3ccccc3s2)n1C	2.24 µM (active)
Cc1ccc(CNC(=O)C2CCCN2C(=O)NCc2ccccc2)cc1 (stereo unspecified)	10 µM (active)
N[C@@H](C(=O)O)c1ccc(C(=O)O)c(O)c1	inactive

Entry source: PubChem BioAssay AID1851
